System: SNB-19 CNS
Experiment: NCI tumour cell line growth inhibition, 48 h
reported-metric: TGI

Below: 3 compounds and their reported TGI.
CCOC(=O)c1cn(CC)c2cc3c(cc2c1=O)SCS3    > 100 µM
O=C1C(NS(=O)(=O)c2ccccc2)=C(N(Cc2ccccc2)Cc2ccccc2)C(=O)c2ccccc21    > 100 µM
NS(=O)(=O)c1ccc(NC(=O)c2cccc3c(Nc4ccc(S(N)(=O)=O)cc4)c4ccccc4nc23)cc1    > 100 µM

Query: Quick check: TGI on SNB-19 CNS, item CNC(=O)c1cncc(/C=C/c2c(Cl)cccc2Cl)c1 ?
Response: > 25 µM

Query: Quick check: TGI on SNB-19 CNS, item O=[N+]([O-])c1ccc2[nH]c(O)c(N=NC(=S)Nc3ccccc3)c2c1 ?
Response: 27.6 µM

Query: Quick check: TGI on SNB-19 CNS, item O=C1NN=C(c2ccc([N+](=O)[O-])cc2)C1n1nc(-c2ccccc2)c2ccccc2c1=O (stereo not drawn) ?
Response: > 100 µM

Query: Quick check: TGI on SNB-19 CNS, item CC1=C(C(=O)Nc2ccccc2C)C(c2ccccc2C)C(C(=O)Nc2ccccc2C)=C(C)N1 ?
Response: 56.9 µM

Query: Quick check: TGI on SNB-19 CNS, item N#CCN(Cc1ccccc1)[C@@H]1CCC[C@]1(O)C#Cc1ccc2c(c1)OCO2 ?
Response: 41.5 µM

Query: Quick check: TGI on SNB-19 CNS, item Cc1cn(Cc2ccccc2CCl)c(=O)n(Cc2ccccc2CCl)c1=O ?
Response: 6.66 µM

Query: Quick check: TGI on SNB-19 CNS, item O=C(O)CO/N=C1/C(c2c(O)[nH]c3ccccc23)=Nc2ccccc21 ?
Response: > 100 µM

Query: Quick check: TGI on SNB-19 CNS, item CC(C)(C)N=c1n(C(C)(C)C)oc(=O)n1-c1ccccc1 ?
Response: > 50 µM

Query: Quick check: TGI on SNB-19 CNS, item CN(C)C(=S)SCC(N)=O ?
Response: > 100 µM

Query: Quick check: TGI on SNB-19 CNS, item C=C(C)C(=O)O[C@H]1CC2=CC(CC(C)=C[C@H]3OC(=O)C(=C)C13)OC2=O (stereo partly drawn) ?
Response: > 100 µM

====

Test system: SK-MEL-28 melanoma
Experiment: NCI tumour cell line growth inhibition, 48 h
Where a SMILES comes first, the peptide text is derived from it.
Parameter: TGI. Scope: all listed entries.

CC(=O)NC(CO)C(=O)NC(Cc1ccc(O)cc1)C(=O)NCC(N)=O (stereo not drawn) (Ac-Ser-Tyr-Gly-NH2; configuration not given here)    > 100 µM

Query: Dear colleague, I am looking for the recorded TGI of the following compound: COc1ccccc1N1C(=O)CC(=O)N(C(=O)CCCCCCCCC(=O)N2C(=O)CC(=O)N(c3ccccc3OC)C2=S)C1=S
Response: > 100 µM

Query: Dear colleague, I am looking for the recorded TGI of the following compound: CSc1nc(-c2ccc(Cl)cc2)c(C#N)c(=O)[nH]1
Response: > 100 µM

Query: Dear colleague, I am looking for the recorded TGI of the following compound: c1ccc(/C(=N\Nc2ccc3ccccc3n2)c2ccccn2)cc1
Response: 39 µM

Query: Dear colleague, I am looking for the recorded TGI of the following compound: Cc1cccc(N=C2NC(=O)C(CC(=O)Nc3ccccc3Cl)S2)c1 (stereo not given)
Response: > 100 µM
